# Assay overview: Increased transcription of human calcitonin luciferase reporter gene at 30 uM
# Format: functional
// assign True if CT-luci TAR falls strictly below 2 T/C, else False (ties count as False)

CCCCn1c(=O)c2cn(S(=O)(=O)c3ccc(C(C)(C)C)cc3)nc2n(CCCC)c1=O | False
CCCCn1c(=O)c2c(ncn2CC(C)=O)n(CCCC)c1=O | False
CCCCn1c(=O)c2cn(S(=O)(=O)c3cc(Cl)c(Cl)s3)nc2n(CCCC)c1=O | False
CCCCn1c(=O)c2nn(S(=O)(=O)c3ccc(C(C)(C)C)cc3)cc2n(CCCC)c1=O | False
CCCCn1c(=O)c2cn(S(C)(=O)=O)nc2n(CCCC)c1=O | True
CCCCn1c(=O)c2nn(S(=O)(=O)Cc3ccccc3)cc2n(CCCC)c1=O | True
CCCCn1c(=O)c2nn(S(C)(=O)=O)cc2n(CCCC)c1=O | False
CCCCn1c(=O)c2nn(S(=O)(=O)CCCCl)cc2n(CCCC)c1=O | True
CCCCn1c(=O)c2cn(S(=O)(=O)CCCCl)nc2n(CCCC)c1=O | True

====

# Assay overview: Increased transcription of human calcitonin luciferase reporter gene at 30 uM
# Format: functional
Some compounds, each annotated with its measured CT-luci TAR.
Experimental endpoint: CT-luci TAR (T/C)

CCCCn1c(=O)c2cn(S(=O)(=O)c3cccc4cccnc34)nc2n(CCCC)c1=O | 2.9
CCCCn1c(=O)c2cn(S(=O)(=O)c3ccccc3C#N)nc2n(CCCC)c1=O | 3.6
CCCCn1c(=O)c2nn(S(=O)(=O)c3cc(Cl)c(Cl)s3)cc2n(CCCC)c1=O | 1.7
CCCCn1c(=O)c2nn(S(=O)(=O)c3ccc4ccccc4c3)cc2n(CCCC)c1=O | 1.8
CCCCn1c(=O)c2nn(S(=O)(=O)c3cccc4cccnc34)cc2n(CCCC)c1=O | 2.2
CCCCn1c(=O)c2nn(S(=O)(=O)c3cccc(C(F)(F)F)c3)cc2n(CCCC)c1=O | 1.8

====

# Target: Phosphodiesterase 4 (Homo sapiens, UniProt P27815+Q08499+Q07343+Q08493)
# Assay overview: Percent Rolipram activity of a standard U937 cell phosphodiesterase 4 (PDE4) enzyme assay at 30 uM of compound
# Assay type: cell-based
# Experimental context: U-937
Experimental endpoint: Activity (%)

CCCCn1c(=O)c2cn(S(=O)(=O)Cc3ccccc3)nc2n(CCCC)c1=O | 52
CCCCn1c(=O)c2nn(S(=O)(=O)c3cccc4cccnc34)cc2n(CCCC)c1=O | 59
CCCCn1c(=O)c2c(ncn2CC(C)=O)n(CCCC)c1=O | 100
CCCCn1c(=O)c2cn(S(C)(=O)=O)nc2n(CCCC)c1=O | 93
CCCCn1c(=O)c2nn(S(=O)(=O)CCCCl)cc2n(CCCC)c1=O | 69

====

# Target: Phosphodiesterase 4 (Homo sapiens, UniProt P27815+Q08499+Q07343+Q08493)
# Assay overview: Percent Rolipram activity of a standard U937 cell phosphodiesterase 4 (PDE4) enzyme assay at 30 uM of compound
# Type: cell-based
# Experimental context: U-937
Experimental endpoint: Activity (%)

CCCCn1c(=O)c2cn(S(=O)(=O)c3cc(Cl)c(Cl)s3)nc2n(CCCC)c1=O | 16
CCCCn1c(=O)c2nn(S(=O)(=O)c3cc(Cl)c(Cl)s3)cc2n(CCCC)c1=O | 59
CCCCn1c(=O)c2nn(S(=O)(=O)c3ccc4ccccc4c3)cc2n(CCCC)c1=O | 66
CCCCn1c(=O)c2nn(S(C)(=O)=O)cc2n(CCCC)c1=O | 60
CCCCn1c(=O)c2cn(S(=O)(=O)c3ccccc3C#N)nc2n(CCCC)c1=O | 32
CCCCn1c(=O)c2nn(S(=O)(=O)c3cccc(C(F)(F)F)c3)cc2n(CCCC)c1=O | 32
CCCCn1c(=O)c2cn(S(=O)(=O)CCCCl)nc2n(CCCC)c1=O | 66
CCCCn1c(=O)c2nn(S(=O)(=O)Cc3ccccc3)cc2n(CCCC)c1=O | 65
CCCCn1c(=O)c2cn(S(=O)(=O)c3ccc(C(C)(C)C)cc3)nc2n(CCCC)c1=O | 57
CCCCn1c(=O)c2nn(S(=O)(=O)c3ccc(C(C)(C)C)cc3)cc2n(CCCC)c1=O | 37
CCCCn1c(=O)c2cn(S(=O)(=O)c3cccc4cccnc34)nc2n(CCCC)c1=O | 96
